Measured values drawn from paper PMC11284800 for this set.

# TEST SYSTEM: hCB1R (Homo sapiens)
# Sequence (P21554 whole entry): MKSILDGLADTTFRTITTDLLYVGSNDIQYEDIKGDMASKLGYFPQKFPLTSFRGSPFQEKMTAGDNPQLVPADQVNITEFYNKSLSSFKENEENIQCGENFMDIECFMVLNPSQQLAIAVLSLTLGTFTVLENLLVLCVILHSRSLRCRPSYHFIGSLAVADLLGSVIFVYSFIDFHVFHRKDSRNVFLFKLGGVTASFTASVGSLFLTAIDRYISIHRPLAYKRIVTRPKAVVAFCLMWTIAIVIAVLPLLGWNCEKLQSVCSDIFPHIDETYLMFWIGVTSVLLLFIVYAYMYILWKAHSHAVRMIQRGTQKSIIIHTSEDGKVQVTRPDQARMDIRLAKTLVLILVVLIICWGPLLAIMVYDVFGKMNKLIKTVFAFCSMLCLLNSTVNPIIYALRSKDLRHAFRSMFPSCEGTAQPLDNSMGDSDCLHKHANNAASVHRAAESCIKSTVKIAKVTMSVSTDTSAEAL
# METHOD NOTES: HTRF cAMP assay, agonist / inverse agonist mode
# Assay type: cell-based
# Set-up: expressed in transfected cells; host or cells: CHO
TEST READOUT: IC50 (nM)
All answers are understood in nM, so give the number only.

Here's what some known entries look like.
Specify reported IC50 for the compound shown: CCOC(=O)C(CC)(CC)NC(=O)c1nn(-c2ccc(Cl)cc2Cl)c(-c2ccc(Cl)cc2)c1C [Compound 15]
13.2

Specify reported IC50 for the compound shown: CCC(CC)(NC(=O)c1nn(-c2ccc(Cl)cc2Cl)c(-c2ccc(Cl)cc2)c1C)C(=O)NCCOCCOCCNc1ccc([N+](=O)[O-])c2nonc12 [Compound 30]
60.3

Specify reported IC50 for the compound shown: CCOC(=O)C(CC)(CC)NC(=O)c1cnc(OCCOC)c(-c2ccc(Cl)cc2)n1 [Compound 18]
191

More entries:
Specify reported IC50 for the compound shown: CCC(CC)(NC(=O)c1nn(-c2ccc(Cl)cc2Cl)c(-c2ccc(Cl)cc2)c1C)C(=O)NCCOCCOCCNC(=O)OC(C)(C)C [Compound 23b]
64.6

Specify reported IC50 for the compound shown: CCOC(=O)C(CC)(CC)NC(=O)c1cnc(OCC2CC2)c(-c2ccc(F)cc2)c1 [Compound 17]
43.6

Specify reported IC50 for the compound shown: CCC(CC)(NC(=O)c1cc(-c2cc(C(F)(F)F)ccc2C(F)(F)F)n(C[C@H]2CCCO2)c1C)C(=O)NCCOCCOCCNc1ccc([N+](=O)[O-])c2nonc12 [Compound 28]
16.6

Specify reported IC50 for the compound shown: CCOC(=O)C(CC)(CC)NC(=O)c1cc(-c2cc(C(F)(F)F)ccc2C(F)(F)F)n(C[C@H]2CCCO2)c1C [Compound 14]
1.48

====

# TEST SYSTEM: hCB1R (Homo sapiens)
# METHOD NOTES: [3H]CP55,940 displacement assay on CHO membranes, CB1R
# Format: binding
# Parameters: host or cells: CHO-K1 (CHOK1hCB1_bgal)
# CONDITION SET: [3H]CP55,940 displacement, CHO membranes stably expressing human CB1R; means of three experiments; read-out: hCB1R Ki
Reported Ki by item:

Specify reported Ki for the compound shown: CCC(CC)(NC(=O)c1cnc(OCCOC)c(-c2ccc(Cl)cc2)n1)C(=O)NCCOCCOCCNc1ccc([N+](=O)[O-])c2nonc12
> 10 µM

More entries:
Specify reported Ki for the compound shown: CCC(CC)(NC(=O)c1cnc(OCCOC)c(-c2ccc(Cl)cc2)n1)C(=O)NCCOCCOCCNC(=O)c1ccc2c(c1)C(=O)OC21c2ccc(N(C)C)cc2Oc2cc(N(C)C)ccc21
> 10 µM

Specify reported Ki for the compound shown: CCC(CC)(NC(=O)c1cc(-c2cc(C(F)(F)F)ccc2C(F)(F)F)n(C[C@H]2CCCO2)c1C)C(=O)NCCOCCOCCNc1ccc([N+](=O)[O-])c2nsnc12
0.316 µM

====

# TEST SYSTEM: human CB2R (Homo sapiens)
# Construct: host or cells: CHO-K1 (CHOK1hCB2_bgal)
# Sequence (P34972 whole entry): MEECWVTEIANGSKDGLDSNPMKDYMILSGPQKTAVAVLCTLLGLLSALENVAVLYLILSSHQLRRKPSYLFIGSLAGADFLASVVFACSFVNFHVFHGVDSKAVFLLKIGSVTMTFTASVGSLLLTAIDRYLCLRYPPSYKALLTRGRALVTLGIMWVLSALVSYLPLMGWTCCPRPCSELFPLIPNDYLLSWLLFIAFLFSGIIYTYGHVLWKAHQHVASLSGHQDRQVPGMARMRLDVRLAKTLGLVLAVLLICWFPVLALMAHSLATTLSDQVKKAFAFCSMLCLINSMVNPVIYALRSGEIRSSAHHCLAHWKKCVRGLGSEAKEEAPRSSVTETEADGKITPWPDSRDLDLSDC
# METHOD NOTES: [3H]CP55,940 displacement assay on CHO membranes, CB2R
# Assay type: binding
# CONDITION SET: read-out: hCB2R Ki; [3H]CP55,940 displacement, CHO membranes stably expressing human CB2R; means of three experiments
pKi: −log10 of the molar value.
Reported pKi by item:

Here's what some known entries look like.
Specify reported pKi for the compound shown: CCC(CC)(NC(=O)c1cc(-c2cc(C(F)(F)F)ccc2C(F)(F)F)n(C[C@H]2CCCO2)c1C)C(=O)NCCOCCOCCNC(=O)c1ccc2c(c1)C(=O)OC21c2ccc(N(C)C)cc2Oc2cc(N(C)C)ccc21
< 5.00

Specify reported pKi for the compound shown: CCC(CC)(NC(=O)c1nn(-c2ccc(Cl)cc2Cl)c(-c2ccc(Cl)cc2)c1C)C(=O)NCCOCCOCCNC(=O)c1ccc2c(c1)C(=O)OC21c2ccc(N(C)C)cc2Oc2cc(N(C)C)ccc21
< 5.00

Continue with the compound presented below.
Specify reported pKi for the compound shown: CCC(CC)(NC(=O)c1nn(-c2ccc(Cl)cc2Cl)c2c1CCCc1cc(Cl)ccc1-2)C(=O)NCCOCCOCCNC(=O)c1ccc2c(c1)C(=O)OC21c2ccc(N(C)C)cc2Oc2cc(N(C)C)ccc21
< 5.00
